Target: NK1-receptor (substance P-receptor) (Homo sapiens)
Construct: cloned NK1 -receptors on human lymphoblastoma cells (IM-9); endogenous in cells; host or cells: IM-9 human lymphoblastoma cells
Sequence (P25103 whole entry): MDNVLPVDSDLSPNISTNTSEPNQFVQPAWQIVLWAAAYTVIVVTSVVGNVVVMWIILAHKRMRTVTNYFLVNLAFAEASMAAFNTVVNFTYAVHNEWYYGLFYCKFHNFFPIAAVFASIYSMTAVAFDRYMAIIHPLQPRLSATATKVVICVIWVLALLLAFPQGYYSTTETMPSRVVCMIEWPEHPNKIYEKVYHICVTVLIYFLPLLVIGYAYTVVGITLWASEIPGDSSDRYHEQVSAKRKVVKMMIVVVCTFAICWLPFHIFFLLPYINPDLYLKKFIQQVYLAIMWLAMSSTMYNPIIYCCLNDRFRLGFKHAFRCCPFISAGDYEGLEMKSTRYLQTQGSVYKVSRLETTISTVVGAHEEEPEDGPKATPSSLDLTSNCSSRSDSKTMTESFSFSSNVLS
Test: NK1-receptor (substance P-receptor) affinity: displacement of 125I-labelled substance P on IM-9 cells
Type: binding
Details: cloned NK1-receptors on human lymphoblastoma cells (IM-9); displacement of 125I-labelled substance P; read-out: NK1 IC50
The threshold is 20 nM. Values of IC50 beneath it are tagged class 1; values meeting or exceeding it are tagged class 0.

Compound: Cc1ccccc1CN(C)C(=O)[C@H](Cc1cn(C)c2ccccc12)NC(=O)[C@@H]1C[C@@H](O)CN1C(=O)C1C(=O)C2(C)CCC1C2(C)C (stereo partly shown) [Compound 45]
Category label: class 1
//
Compound: Cc1ccccc1CN(C)C(=O)[C@H](Cc1c[nH]c2ccccc12)NC(=O)[C@@H]1C[C@@H](O)CN1C(=O)C1C(=O)C2(C)CCC1C2(C)C (single isomer, unassigned) [Compound 2]
Category label: class 1
//
Compound: COc1ccccc1N1CCN(C(=O)[C@H](Cc2ccc3ccccc3c2)NC(=O)[C@@H]2C[C@@H](O)CN2S(=O)(=O)CC23CCC(CC2=O)C3(C)C)CC1 (stereo partly shown) [Compound 20]
Category label: class 0
//
Compound: CC12CCC(C(C(=O)N3C[C@H](O)C[C@H]3C(=O)N[C@@H](Cc3ccc4ccccc4c3)C(=O)N3CCN(c4ccc5ccccc5c4)CC3)C1=O)C2(C)C (stereo partly shown) [Compound 13]
Category label: class 0
//
Compound: CCc1ccccc1CN(C)C(=O)[C@H](Cc1c[nH]c2ccccc12)NC(=O)[C@@H]1C[C@@H](O)CN1C(=O)C1C(=O)C2(C)CCC1C2(C)C (stereo partly shown) [Compound 44]
Category label: class 1
//
Compound: Cc1ccccc1CN(C)C(=O)[C@H](Cc1c[nH]c2ccccc12)NC(=O)[C@@H]1CCCN1C(=O)C1C(=O)C2(C)CCC1C2(C)C (stereo partly shown) [Compound 47]
Category label: class 1

Next, consider the following compound.
Please state whether IC50 is below 20 nM for COc1ccccc1CN1C(=O)C(NC(=O)[C@@H]2C[C@@H](O)CN2C(=O)C2C(=O)C3(C)CCC2C3(C)C)Cc2cc(OC)c(OC)cc21 (stereo partly shown) [Compound 28]
class 0
